# procedure details: Osmotic pressure of saturated solutions by vapor pressure osmometer
# Type: physicochemical
# experimental context: saturated solution in water at 37° C.; Model 320B Vapor Pressure Osmometer
Each record is given 1.0 if its reported OSMOTIC PRESSURE is strictly below 40 ATM. Records at or above 40 ATM are given 0.0.

Consider the following illustrative entries.
- [Cl-].[K+] [Potassium Chloride]: 0.0
- [Cl-].[Na+] [Sodium Chloride]: 0.0
- O=P([O-])([O-])O.[Na+].[Na+] [Sodium Phosphate Dibasic Anhydrous]: 1.0
- O.O.O.O.O.O.O.O=P([O-])([O-])O.[Na+].[Na+] [Sodium Phosphate Dibasic.7H2O]: 1.0
- O.O.O.O.O.O.O.O.O.O.O.O.O=P([O-])([O-])O.[Na+].[Na+] [Sodium Phosphate Dibasic.12H2O]: 1.0
- O=C(CO)[C@@H](O)[C@H](O)[C@H](O)CO: 0.0

Data request: # check: OSMOTIC PRESSURE < 40 ATM for O.O.O.O.O.O.O.O.O.O.O.O.O=P([O-])([O-])[O-].[Na+].[Na+].[Na+] [Sodium Phosphate Tribasic.12H2O]
Data returned: 1.0

Data request: # check: OSMOTIC PRESSURE < 40 ATM for OC[C@@H](O)[C@@H](O)[C@H](O)[C@H](O)CO
Data returned: 1.0

// data source = patent US6773721B1
